- Test system: HS 578T breast
- procedure_summary: NCI-60 one-dose screen, 48 h
- stated_conditions: 10 µM unless noted
This is part of a sample that, as a whole, favours compounds with a hit. Of some 83,000 tested, about 20% had one in any assay. The source made the active and inactive calls. Rule for the calls: active = growth percent below 10; inactive = the rest.
Outcomes: active, inactive

- CN(C)CC/C=C1\c2ccccc2Sc2ccc(Cl)cc21: inactive
- COc1cc(CN(c2ccc(Cl)cc2)C2OC(=O)c3ccccc32)cc(OC)c1OC (stereo unspecified): inactive
- Cc1cn([C@]2(CF)O[C@H](CO)C2C)c(=O)[nH]c1=O (stereo partly specified): inactive
- COc1ccc(OCC(O)CN2CCN(c3ccc(Cl)cc3)CC2)cc1 (stereo unspecified): inactive
- COc1ccc(/C=C/C(=O)c2ccc(Oc3ncnc4ccccc34)cc2)cc1OC: inactive
- Nc1ccc(S(=O)(=O)Nc2ccnn2-c2ccccc2)cc1: inactive
- CC(=S)Nc1ccccc1: inactive
- O=C(CSc1nnc(-c2ccccc2)o1)Nc1ccc(C(=O)/C=C/c2ccccc2)cc1: inactive
- COc1ccc(-n2c(-c3ccc(NC(=O)CCCl)cc3)nnc2-c2cc(OC)c(OC)c(OC)c2)cc1: inactive
- COc1cc2nc(C(=O)N3CCCCC3)cc(Nc3ccccc3)c2cc1OC: inactive
- COc1ccc(-c2cnc(-c3ccc(F)cc3)[nH]2)cc1: inactive
- CCOC(=O)C(C)(CSSCC(C)(NC(=O)c1ccc2ccccc2c1)C(=O)OCC)NC(=O)c1ccc2ccccc2c1 (stereo unspecified): inactive
- CCOc1ccc(NC2=C(Cl)C(=O)c3ccccc3C2=O)cc1: inactive
- O=c1c2ccccc2sc2c(NCCN3CCOCC3)nc3ccccc3c12: inactive
- COc1ccc(Cl)cc1NC(=O)c1cc2c([nH]1)-c1nc(NC(=O)C(C)(C)C)sc1CC2: inactive
- CCCN1C(=O)CSC1=Nc1ccc2cc3ccc(N=C4SCC(=O)N4CCC)cc3nc2c1: inactive
- COc1ccc(C[C@H](N)C(=O)N[C@@H]2[C@@H](CO)OC(n3cnc4c(N(C)C)ncnc43)[C@@H]2O)cc1 (stereo partly specified): inactive
- CC(C)Cn1cnc2c3ccccc3nc(NCn3nc(-c4cc(Cl)cc(Cl)c4Cl)oc3=S)c21: inactive
- O=C1c2ccccc2OC=C(c2ccccc2)N1CCCCNc1ccc(F)cc1: inactive
- COc1ccc2c(c1)nnn1c3ncccc3c(N=O)c21: active
- COc1ccc(-c2nnc(SCC(=O)Nc3ccc(C(=O)/C=C/c4ccc(Cl)cc4)cc3)o2)cc1OC: inactive
- C=CCn1c(SCC(=O)Nc2ccc(/C(C)=N\O)cc2)nnc1-c1cc(-c2ccc(OC)cc2)nc2ccccc12: inactive
- NS(=O)(=O)c1ccc(Nc2nc(O)c(/C=C3\C=Nc4ccccc43)s2)cc1: inactive
- CCOC(=O)NNc1nncc2ccccc12: inactive
- S=c1ssnc1-c1ccccn1: active
- CC(NCCC(c1ccccc1)c1ccccc1)c1ccccc1 (stereo unspecified): inactive
- CN1CCN(C(=O)/C=C/c2ccc([N+](=O)[O-])o2)CC1: inactive
- CC1CCc2cc(F)cc3c(=O)c(C(=O)O)cn1c23 (stereo unspecified): inactive
- COc1ccccc1N1CCN(CCCOc2ccc(OCCCN3CCN(c4ccccc4OC)CC3)c(C(=O)c3cc(OC)c(OC)c(OC)c3)c2)CC1: inactive
- CC(=O)N1N=C2N(Cc3ccccc3)C(=O)c3c(sc4c3CCCC4)N2C1c1cn(-c2ccccc2)nc1-c1ccc(Cl)cc1 (stereo unspecified): inactive
- Nc1ncc(-c2ccc3ncnc(Nc4cncc(Cl)c4)c3c2)cn1: inactive
- O=C1OC(N(Cc2ccc(Cl)cc2)c2ccccc2)c2ccccc21 (stereo unspecified): inactive
- C=C1C(=O)O[C@H]2[C@H]1CC/C(COC(=O)n1ccnc1C)=C\CC[C@@]1(C)O[C@@H]21: inactive
- COc1ccc(C(=O)Cn2cnc3c(Nc4cc(C(=O)Nc5ccc(N6CCN(CCO)CC6)cc5)ccc4C)ncnc32)cc1: inactive
- CS(=O)(=O)Nc1cccc(-c2ccc3ncnc(Nc4cncc(Cl)c4)c3c2)c1: active
- Cc1c(F)cccc1NC(=O)c1sc2nc3c(cc2c1N)CCCCC3: inactive
- COc1ccc(Cn2cc3c(c2-c2cc(OC)c(OC)c(OC)c2)CCc2c(CO)noc2-3)cc1: active
- COc1ccc(-c2nnc(SCC(=O)N3CCN(c4cc5c(cc4F)c(=O)c(C(=O)O)cn5C4CC4)CC3)o2)cc1OC: inactive
- CCCCCC/C=N/Nc1ccc([N+](=O)[O-])cn1: inactive
- COc1cc(NC(C)CCCN2C(=O)c3ccccc3C2=O)c2ncccc2c1OC (stereo unspecified): inactive
- O=C(O)c1ccc(-n2cc(/C=N/Nc3ccccc3F)c(-c3ccc(O)cc3)n2)cc1: inactive

The reported numbers originate from PubChem BioAssay (NCI).
